- System: FaDu (head and neck squamous carcinoma cell line)
- procedure_text: MTT cell viability assay, FaDu
- Assay type: cell-based, human
- assay_setup: SI = IC50 (MCF 10A)/IC50 (FaDu)
SI: selectivity index listing for selected compounds.
assay_metric: SI: selectivity index

>>> experimental_value("O=C(NCCCCCCCCCCNC(=O)c1ccc2ncccc2c1)c1ccc2ncccc2c1 [Compound 18e]")
">28.69"
>>> experimental_value("O=C(NCCCCCCCCCCNC(=O)c1ccccc1)c1ccccc1 [Compound 11e, N,N′-(Decane-1,10-Diyl)Dibenzamide]")
161.08
>>> experimental_value("O=C(NCCCCCCCCCCNC(=O)c1ccc2cc[nH]c2c1)c1ccc2cc[nH]c2c1 [Compound 24e]")
">3.78"
>>> experimental_value("COc1cc(C(=O)NCCCCCCCCCCNC(=O)c2cc(OC)c(OC)c(OC)c2)cc(OC)c1OC [Compound 34e]")
">3.42"
>>> experimental_value("O=C(/C=C/c1ccccc1)NCCOCCOCCOCCNC(=O)/C=C/c1ccccc1")
">4.50"
>>> experimental_value("COc1cc(OC)cc(C(=O)NCCCCCCCCCCNC(=O)c2cc(OC)cc(OC)c2)c1 [Compound 33e]")
">1.92"
>>> experimental_value("O=C(/C=C/c1ccccc1)NCCCCCCCCNC(=O)/C=C/c1ccccc1")
">18.98"
>>> experimental_value("O=C(NCCCCCCCCCCNC(=O)c1ccc2nc[nH]c2c1)c1ccc2nc[nH]c2c1 [Compound 19e]")
">2.29"
>>> experimental_value("COc1ccc(/C=C/C(=O)NCCCCCCCCCCNC(=O)/C=C/c2ccc(OC)c(OC)c2)cc1OC [Compound 27e]")
">4.33"
>>> experimental_value("Cc1nc(C)c(CN(CCCCCCCCN(Cc2nc(C)c(C)nc2C)Cc2nc(C)c(C)nc2C)Cc2nc(C)c(C)nc2C)nc1C")
1.73
>>> experimental_value("O=C(NCCCCCCCCCCNC(=O)c1ccncc1)c1ccncc1 [Compound 13e, N,N′-(Decane-1,10-Diyl)Diisonicotinamide]")
">2.07"
>>> experimental_value("O=C(NCCCCCCCCCCNC(=O)c1cc2ccccc2o1)c1cc2ccccc2o1 [Compound 21e]")
">30.08"
>>> experimental_value("Cc1nc(C)c(CN(CCCCCCCCCCN(Cc2nc(C)c(C)nc2C)Cc2nc(C)c(C)nc2C)Cc2nc(C)c(C)nc2C)nc1C")
1.19
>>> experimental_value("Cc1nc(C)c(CN(CCCCCCCCCCCCN(Cc2nc(C)c(C)nc2C)Cc2nc(C)c(C)nc2C)Cc2nc(C)c(C)nc2C)nc1C")
0.97
>>> experimental_value("Cc1nc(C)c(C(=O)NCCCCCCCCCCNC(=O)c2nc(C)c(C)nc2C)nc1C")
34.56

====

- System: MCF 10A (normal mammary epithelial cell)
- procedure_text: MTT cell viability assay, MCF 10A
- Type: cell-based
- assay_setup: Homo sapiens, 48 h, normal cells, read-out: Antiproliferative Activity IC50 ± SEM, MCF 10A
assay_metric: IC50

>>> experimental_value("O=C(/C=C/c1ccccc1)NCCOCCOCCOCCNC(=O)/C=C/c1ccccc1")
"> 20 µM"
>>> experimental_value("O=C(NCCCCCCCCCCNC(=O)c1cnccn1)c1cnccn1 [Compound 16e]")
"> 100 µM"
>>> experimental_value("Cc1nc(C)c(CN2CCN(Cc3nc(C)c(C)nc3C)CC2)nc1C")
"> 100 µM"
>>> experimental_value("Nc1ccccc1C(=O)NCCCCCCCCCCNC(=O)c1ccccc1N [Compound 30e]")
"> 20 µM"
>>> experimental_value("O=C(NCCCCCCCCCCNC(=O)c1cccnc1)c1cccnc1 [Compound 10e, N,N′-(Decane-1,10-Diyl)Dinicotinamide]")
"38.6 µM"
>>> experimental_value("Cc1nc(C)c(CN(CCCCCCCCCCCCN(Cc2nc(C)c(C)nc2C)Cc2nc(C)c(C)nc2C)Cc2nc(C)c(C)nc2C)nc1C")
"6.57 µM"
>>> experimental_value("COc1ccc(/C=C/C(=O)NCCCCCCCCCCNC(=O)/C=C/c2ccc(OC)c(O)c2)cc1O [Compound 26e]")
"> 20 µM"
>>> experimental_value("COc1cc(OC)cc(C(=O)NCCCCCCCCCCNC(=O)c2cc(OC)cc(OC)c2)c1 [Compound 33e]")
"> 20 µM"

Entry source: paper PMC6943434
